Just for reference, PubChem BioAssay is where these values come from.

experiment: A549 lung cancer cell viability effects, profiling panel, resazurin fluorescence, 24 h, PK04 Diversity Set (AID 1171); settings: higher = more signal, called active from +8 up or from −8 down; further: test concentration not given here
property measured: z-score

molecule	value observed
COc1ccccc1CN1C(=O)c2ccccc2[C@](Cc2ccccc2I)(C(=O)NCC(F)(F)F)[C@@H]1c1ccc(CO)cc1	0.12
CCOC(=O)C1=CC[C@@H](c2cccc(Cl)c2)N(S(=O)(=O)c2ccc(C)cc2)C1	-0.617
O=C(NCC(F)(F)F)[C@@H]1c2ccccc2C(=O)N(Cc2cc(F)cc(C(F)(F)F)c2)[C@H]1c1ccc(CO)cc1	0.44
CCOC(=O)C1=CC[C@@H](c2ccccc2C(F)(F)F)N(S(=O)(=O)c2ccc(C)cc2)[C@H]1c1ccc(C#N)cc1	-0.035
COC(=O)c1c2oc(c1C(=O)OC)C(=O)N(Cc1ccccc1)Cc1cn(nn1)C[C@H](Cc1ccccc1)NC(=O)N[C@H](CO)CC2	1.27
C=C(/C(=C/C[C@H](OC(=O)c1ccncc1)c1ccc(CO)o1)c1cc(C(=O)OC)ccc1OC)C(C)C	-0.18
CCCCO[C@H]1C[C@H]2C(I)=C[C@@H]1C(=O)[C@]21CO1	0.0651
Cc1ccc(S[C@]2(C(=O)NCCCN(C)C)CC(=O)N(C3CCCCC3)[C@@H]2c2ccc(CO)cc2)cc1	1.06
C=CCNC(=O)[C@H]1[C@@H]2C(=O)O[C@@H](c3ccccc3)[C@@H](c3ccccc3)N2[C@@H](c2ccc(O)cc2)[C@]12C(=O)N(C(=O)OCCOC)c1ccccc12	-1.56
C=CCOC(=O)[C@H]1[C@@H]2C(=O)O[C@@H](c3ccccc3)[C@@H](c3ccccc3)N2[C@@H](c2ccc(OCCOC(=O)[C@@H]3C[C@@H]4C(=O)N[C@@H](CCCCNC(C)=O)C(=O)N4[C@@H]3c3ccc(O)cc3)cc2)[C@]12C(=O)Nc1ccc(I)cc12	-0.389
C=CCOC(=O)[C@H]1[C@@H]2C(=O)O[C@@H](c3ccccc3)[C@@H](c3ccccc3)N2[C@@H](c2ccc(OCCOC(=O)[C@@H]3C[C@@H]4C(=O)N[C@@H](CCCCN(C)C)C(=O)N4[C@@H]3c3ccc(O)cc3)cc2)[C@]12C(=O)Nc1ccccc12	0.23
[N-]=[N+]=Nc1ccccc1[C@H]1OC(c2ccc(OCCCO)cc2)=N[C@@]1(Cc1ccccc1)C(=O)N1CCCCC1	-2.29
CC(C)[Si](C#CCCCC#N)(O[C@H](c1ccccc1)c1cn([C@H](CO)Cc2ccccc2)nn1)C(C)C	0.723
CCCCC(O)C1C=CC2C(=O)N(c3ccccc3)C(=O)C2N1Nc1ccc(C(C)C)cc1 (centres undefined)	-0.762

---

test: CREB reporter modulators under forskolin, primary screen, cell-based, PC12, CRE-LacZ reporter, forskolin-stimulated (AID 1146); conditions: luminescence, 4.5 h, higher = more signal, called active from +8 up or from −8 down;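 further: PC12 cells with 6xCRE LacZ reporter stimulated by forskolin 10 µM; beta-galactosidase reporter signal reflecting CREB driven transcription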
# Lookup of reported z-score keyed by entry

molecule	z-score
O=C1O[C@@H](c2ccccc2)[C@@H](c2ccccc2)N2[C@@H](c3ccc(OCCO)cc3)[C@]3(C(=O)Nc4ccccc43)[C@@H](C(=O)O)[C@H]12	0.273
CO[C@]12C=C(Br)[C@@H](C[C@@H]1c1cccc(C)c1)[C@@]1(CO1)C2=O	5.27
COCCOC(=O)N1C(=O)[C@@]2(c3cc(C#CCC(C(=O)OC)C(=O)OC)ccc31)[C@H](C(=O)N1CCc3cc(OC)c(OC)cc3C1)[C@H]1C(=O)O[C@H](c3ccccc3)[C@H](c3ccccc3)N1[C@@H]2c1ccc(OCCO)cc1	-0.333
C=C(COC)C(=O)CC[C@@H](OC(=O)c1cccnc1)c1ccc(OCCO)cc1	0.0067
COc1ccc([Si](C)(C)[C@@H]2[C@@H](CCn3cc([C@H](O)c4ccccc4)nn3)O[C@]3(C(=O)N(Cc4ccc(N5CCC5=O)cc4)c4ccccc43)[C@H]2C)cc1	0.355
[N-]=[N+]=Nc1ccccc1[C@H]1OC(c2ccc(OCCCO)cc2)=N[C@@]1(CCS(=O)(=O)c1ccccc1)C(=O)NCCN1CCOCC1	-0.5

---

assay: binders of probe aFGF2 on microarray, primary screen, stem cell growth factor project, biochemical, small-molecule microarray, fluorescence 635/667 (AID 1067); conditions: higher = more signal;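 further: measures binding of biotinylated aFGF2 protein to printed compounds on slides; z-score merges feature fluorescence and signal-to-noise across triplicate slides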
property measured: composite z-score

compound	value observed
C=C(COC)C(=O)CC[C@@H](OC(=O)c1cccnc1)c1ccc(OCCO)cc1	-0.172
CCOC(=O)C[C@H]1[C@H](OC(=O)c2ccc(C(=O)c3ccccc3)cc2)[C@@H](NC(=O)Cc2ccc(OC)cc2)c2cc(OCCCO)ccc2N1C(=O)c1ccccc1	-0.107
COC(=O)c1c2oc(c1C(=O)OC)C(=O)N(C)Cc1cn(nn1)C[C@H](Cc1ccccc1)NC(=O)N[C@H](CO)CC2	-0.174
COC(=O)[C@@]1(Cc2ccc(OC)cc2)[C@H]2c3cc(C(=O)N4CCCC4)n(Cc4c(-c5ccccc5)noc4C)c3C[C@H]2CN1C(=O)c1ccccc1	0.336
COc1cc(OC)c(C(O)C2C=CC3C(=O)N(C)C(=O)C3N2NC(=O)OC(C)(C)C)cc1Br (centres undefined)	0.232
COC(=O)C(CC#Cc1ccc2c(c1)[C@]1(C(=O)N2)[C@H](c2ccccc2OCCO)N2[C@H](c3ccccc3)[C@H](c3ccccc3)OC(=O)[C@H]2[C@@H]1C(=O)NC[C@H](O)c1ccccc1)C(=O)OC	-0.0307
O=C1C[C@@](C(=O)NCCN2CCOCC2)(c2ccc([N+](=O)[O-])cc2)[C@@H](c2ccc(CO)cc2I)N1C1CCCCC1	-0.0736
CN1C(=O)C2C=CC(C(O)c3cccc(O)c3)N(Nc3ccccc3)C2C1=O (centres undefined)	0.0121
CCOC(=O)C[C@H]1[C@H](OC(=O)c2cc3ccccc3oc2=O)[C@@H](NC(=O)Cc2ccc(OC)cc2)c2cc(OCCCO)ccc2N1C(=O)c1ccc2ccccc2n1	-0.127
C=CCC(OC(C)=O)[C@@H]1[C@@H](N(Cc2ccc(-c3ccccc3)cc2)C(=O)Cc2ccc(F)cc2)c2cc(OCCCO)ccc2N1C(=O)Cc1ccc(OC)cc1 (some centres undefined)	-0.172
O=C(N1CCCCC1)[C@@]1(CCS(=O)(=O)c2ccccc2)COC(c2ccc(OCCCO)cc2)=N1	0.237
CCOC(=O)C1=C[C@@H](c2ccccc2)N(S(=O)(=O)c2ccc(C)cc2)[C@H]1c1ccccc1Cl	0.168
O=C1O[C@@H](c2ccccc2)[C@@H](c2ccccc2)N2[C@@H](c3ccccc3OCCO)[C@]3(C(=O)Nc4ccc(C#CCCO)cc43)[C@@H](C(=O)N3CCCCCCC3)[C@H]12	1.1
COc1ccccc1CN1C(=O)c2ccccc2[C@@]2(Cc3ccccc3N(CC(F)(F)F)C2=O)[C@@H]1c1ccc(CO)cc1	-0.226

---

test: E. coli growth modulation, two-sided OD650, primary screen, E. coli filamentation project, strain DRC41, 24 h (AID 1093); conditions: OD650, 24 h, higher = more signal, called active from +8 up or from −8 down;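 further: MC1000 strain lacking acrAB efflux and sulA so SOS filamentation is blocked; test concentration not given here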

compound	z-score
CC(C)C(=C=CC[C@H](O)c1cccc(OCCO)c1)C[C@H](O)c1cc(Cl)cc(Cl)c1O	0.236
COc1ccc(CCNC(=O)[C@@]2(Sc3ccc(C)cc3)CC(=O)N(C3Cc4ccccc4C3)[C@@H]2c2ccc(CO)cc2)cc1	-1.79
C=CCC(OC(C)=O)[C@@H]1[C@@H](N(Cc2ccc(-c3cccc(C(F)(F)F)c3)o2)C(=O)c2ccc(C)cc2)c2cc(OCCCO)ccc2N1C(=O)c1ccc2ccccc2c1 (some centres undefined)	1.14
O=C1O[C@@H](c2ccccc2)[C@@H](c2ccccc2)N2[C@@H](c3ccc(O)cc3)[C@]3(C(=O)Nc4ccc(C#CC5(O)CCCCCC5)cc43)[C@@H](C(=O)NC[C@H](O)c3ccccc3)[C@H]12	-0.255
CN1C(=O)C2C=CC(C(O)c3ccc(F)cc3)N(Nc3ccccc3)C2C1=O (centres undefined)	-1.2
CCOC(=O)C[C@H]1[C@H](OC(=O)c2cc3ccccc3oc2=O)[C@@H](NC(=O)Cc2ccc(OC)cc2)c2cc(OCCCO)ccc2N1C(=O)c1ccc2ccccc2n1	1.31
O=C1C=C(c2ccccc2)C(=O)c2ccc([C@H]3Oc4ccccc4S(=O)(=O)N4CCC[C@@H]34)cc21	1.66
COC(=O)[C@@]1(Cc2ccc(F)cc2)[C@H]2c3cc(C(=O)N(C)C)n(Cc4cc(F)cc5c4OCOC5)c3C[C@H]2CN1C(=O)c1ccccc1	-0.375
Cc1ccc(S[C@]2(C(=O)O)CC(=O)N(C3Cc4ccccc4C3)[C@@H]2c2ccc(CO)cc2)cc1	0.618

---

Listing of entries alongside the reported composite z-score.
system: Fibrinogen (Alexa647-labelled); assay: fibrinogen binders on compound microarrays, profiling panel, artefact control for SMM control-protein annotation, biochemical, small-molecule microarray, 635/667 nm fluorescence (AID 1131); settings: fibrinogen-A647 binding fluorescence, higher = more signal;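 further: z-score merges 667 nm fluorescence with per-spot signal-to-noise over triplicate slides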

compound	composite z-score
O=C1C[C@@](C(=O)NCCN2CCOCC2)(c2ccc([N+](=O)[O-])cc2)[C@@H](c2ccc(CO)cc2I)N1C1CCCCC1	-0.415
CCCCCCCCCCC(O)C1C=CC2C(=O)N(C)C(=O)C2N1Nc1ccc([N+](=O)[O-])cc1[N+](=O)[O-] (stereo not drawn)	0.949
COc1ccc([Si](C)(C)[C@H]2[C@H](CCn3cc([C@H](O)c4ccccc4)nn3)O[C@@]3(C(=O)N(Cc4ccc(N5C(=O)c6cccc7cccc5c67)cc4)c4ccccc43)[C@@H]2C)cc1	-0.153
